# measuredTarget: A2BAR (Homo sapiens, UniProt P29275)
# Construct: Gs-coupled A2BARs endogenously expressed in HEK293 cells; host or cells: HEK293G (HEK293 stably expressing the GloSensor 20F cAMP biosensor)
# Sequence (P29275 whole entry): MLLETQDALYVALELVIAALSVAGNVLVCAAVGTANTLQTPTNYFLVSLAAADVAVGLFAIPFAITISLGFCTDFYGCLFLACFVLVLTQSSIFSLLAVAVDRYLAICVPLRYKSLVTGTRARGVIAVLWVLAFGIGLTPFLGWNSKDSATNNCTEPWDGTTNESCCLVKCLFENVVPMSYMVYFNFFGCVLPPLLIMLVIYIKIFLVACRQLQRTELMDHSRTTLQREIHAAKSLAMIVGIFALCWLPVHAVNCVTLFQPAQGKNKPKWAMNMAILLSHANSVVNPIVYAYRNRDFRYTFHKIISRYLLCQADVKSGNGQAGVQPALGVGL
# assayInfo: GloSensor cAMP luminescence assay in HEK293G cells, endogenous A2BAR-mediated responses (NECA, adenosine, BAY 60-6583)
# Type: cell-based
# conditionSet: antagonism of adenosine (10 µM) response, 30 min pre-incubation, HEK293G
pIC50: −log10 of the molar value.
metric: pIC50

1) CCCn1c(=O)[nH]c2nc(-c3ccc(S(=O)(=O)N4CCN(c5ccc(Cl)cc5)CC4)cc3)[nH]c2c1=O [PSB 603] = 6.85

* * *

# measuredTarget: A2BAR (Homo sapiens, UniProt P29275)
# Construct: Gs-coupled A2BARs endogenously expressed in HEK293 cells; host or cells: HEK293G (HEK293 stably expressing the GloSensor 20F cAMP biosensor)
# assayInfo: GloSensor cAMP luminescence assay in HEK293G cells, endogenous A2BAR-mediated responses (NECA, adenosine, BAY 60-6583)
# Type: cell-based
# conditionSet: BAY 60-6583 pEC50, XAC 300 nM
pEC50: −log10 of the molar value.
metric: pEC50

1) N#Cc1c(N)nc(SCC(N)=O)c(C#N)c1-c1ccc(OCC2CC2)cc1 [BAY 60-6583] = 5.65

* * *

# measuredTarget: A2BAR (Homo sapiens)
# Construct: Gs-coupled A2BARs endogenously expressed in HEK293 cells; host or cells: HEK293G (HEK293 stably expressing the GloSensor 20F cAMP biosensor)
# assayInfo: GloSensor cAMP luminescence assay in HEK293G cells, endogenous A2BAR-mediated responses (NECA, adenosine, BAY 60-6583)
# Assay type: cell-based
# conditionSet: BAY 60-6583 pEC50, PSB 603 300 nM
metric: EC50

1) N#Cc1c(N)nc(SCC(N)=O)c(C#N)c1-c1ccc(OCC2CC2)cc1 = > 30 µM

* * *

# measuredTarget: A2BAR (Homo sapiens)
# Construct: Gs-coupled A2BARs endogenously expressed in HEK293 cells; host or cells: HEK293G (HEK293 stably expressing the GloSensor 20F cAMP biosensor)
# assayInfo: GloSensor cAMP luminescence assay in HEK293G cells, endogenous A2BAR-mediated responses (NECA, adenosine, BAY 60-6583)
# Format: cell-based
# conditionSet: BAY 60-6583 pEC50, PSB 603 30 nM
metric: EC50 (µM)

1. N#Cc1c(N)nc(SCC(N)=O)c(C#N)c1-c1ccc(OCC2CC2)cc1 [BAY 60-6583] = 1.58

* * *

# measuredTarget: A2BAR (Homo sapiens, UniProt P29275)
# Construct: Gs-coupled A2BARs endogenously expressed in HEK293 cells; host or cells: HEK293G (HEK293 stably expressing the GloSensor 20F cAMP biosensor)
# assayInfo: GloSensor cAMP luminescence assay in HEK293G cells, endogenous A2BAR-mediated responses (NECA, adenosine, BAY 60-6583)
# Type: cell-based
# conditionSet: BAY 60-6583 pEC50, ZM 241385 0 nM
metric: EC50 (nM)

1) N#Cc1c(N)nc(SCC(N)=O)c(C#N)c1-c1ccc(OCC2CC2)cc1 = 347
